system: CSNK1G1; conditions: concentration: 1 μM, replicates: in singlicate; n = 1;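 also: KINOMEscan kinase panel screen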
REPORTED_PROPERTY: %Inh (%)

>>> measured_result("c1ccc(Oc2ccc(Nc3ccnc4cc(-c5ccc(CNCCN6CCOCC6)o5)ccc34)cc2)nc1 [GW567145]")
2
>>> measured_result("CC(=O)N1CCN(c2ccc(Nc3nccc(-c4sc(C(C)C)nc4-c4cccc(NS(=O)(=O)c5cccc(Cl)c5)c4)n3)cn2)CC1 [GSK1660437]")
0
>>> measured_result("COc1ccc(-c2coc3ccc(-c4nnc(SCc5ccc(OC)c(C(F)(F)F)c5)o4)cc23)cc1")
0
>>> measured_result("CN1CCN(CCCNc2nccc(-c3c(-c4ccc(F)cc4)nn4cc(C(F)(F)F)ccc34)n2)CC1 [GW621581]")
0
>>> measured_result("Cn1cc(-c2[nH]c3cc(NC(=O)[C@H](N)C4CCCCC4)cc4c3c2C=NNC4=O)cn1")
0
>>> measured_result("CSc1cccc2c(-c3ccncn3)c(-c3ccc(F)cc3)nn12 [GW514786]")
3
>>> measured_result("C[C@@H]1CC[C@@H](C(=O)Nc2ccccc2)CN1c1cc(-c2ccc3c(N)n[nH]c3c2)nc(N)n1 [GSK2286062]")
13
>>> measured_result("Cl.Cl.NCC(C(=O)Nc1cc(Br)c(-c2ccnc3[nH]ccc23)s1)c1ccccc1 (centres unmarked) [GSK1269851]")
0
